- ASSAY_CONDITIONS: in chloroform, 303.15 K
MEASURED_ATTRIBUTE: solubility (mole fraction)
Answer as a number with no unit attached.

Prompt: # return recorded solubility (mole fraction) for input `Clc1ccc(SSc2ccc(Cl)cc2)cc1`
Response: 0.122

---

- ASSAY_CONDITIONS: in ethyl acetate, 303.95 K
MEASURED_ATTRIBUTE: solubility (mole fraction)
Answer as a number with no unit attached.

Prompt: # return recorded solubility (mole fraction) for input `Clc1ccc(SSc2ccc(Cl)cc2)cc1`
Response: 0.0201

---

- ASSAY_CONDITIONS: in ethanol, 312.35 K
MEASURED_ATTRIBUTE: solubility (mole fraction)
Answer as a number with no unit attached.

Prompt: # return recorded solubility (mole fraction) for input `Clc1ccc(SSc2ccc(Cl)cc2)cc1`
Response: 0.00305
